# SYSTEM NAME: Voltage-gated potassium channel subunit beta-2 (Rattus norvegicus) (UniProt P62483)
# Sequence (P62483 whole entry, looked up): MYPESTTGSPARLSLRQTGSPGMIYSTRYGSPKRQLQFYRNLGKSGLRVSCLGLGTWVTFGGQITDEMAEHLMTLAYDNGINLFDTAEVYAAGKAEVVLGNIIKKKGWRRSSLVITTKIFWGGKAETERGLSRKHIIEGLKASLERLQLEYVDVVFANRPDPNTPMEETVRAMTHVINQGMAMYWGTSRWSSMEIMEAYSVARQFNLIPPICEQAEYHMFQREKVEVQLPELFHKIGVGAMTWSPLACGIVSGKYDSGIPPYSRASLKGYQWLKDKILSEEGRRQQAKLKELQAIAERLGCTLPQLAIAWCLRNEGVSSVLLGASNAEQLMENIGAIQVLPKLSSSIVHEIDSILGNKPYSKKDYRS
# EXPERIMENTAL PROTOCOL: KvBeta enzyme negative modulators, primary screen, biochemical, NADPH fluorescence (AID 622);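 further: slope of raw intensity against log time taken from 70 to 1610 s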
# TEST PARAMETERS: recombinant KvBeta, 4-cyanobenzaldehyde reduction, at 10 µM, hits give high values
# Lookup of reported fluorescence slope keyed by entry
Lab note: record the figure alone, no unit after it.

// lookup fluorescence slope for COc1ccc(/C(O)=C2\C(=O)C(=O)N(c3cc(C)on3)C2c2ccccc2OC)cc1 (stereo unspecified)
-0.469

Next record, please: "CCOC(=O)c1c(C)cccc1OCC(N)=O"
-0.487

Next record, please: "Cn1cc(Br)cc2nc(C(F)(F)F)nc1-2"
-0.532

Next record, please: "CCOc1ccc(-c2nn3c(-c4ccc(OC)cc4)nnc3s2)cc1"
-0.443

Next record, please: "C=CCc1c(C)c(C#N)c2nc3ccccc3n2c1N1CCN(C)CC1"
-0.476

Next record, please: "CCN(CC)CCOC(=O)C(c1ccccc1)c1ccccc1"
-0.478

This collection of values is drawn from PubChem BioAssay.
